target: T1, SARS-CoV2 Spike ecto foldon Trimer expressed with a C-terminal myc-myc-hexahistidine (SARS-CoV-2, UniProt P0DTC2 14-1213); assay: SPR Biacore, mAb captured by anti-hFc, 37C
T1 construct: extracellular domain
metric-name: koff (s⁻¹)
One number for each entry, in s⁻¹.

// solved cases for koff follow
[
  {
    "binder": "mAb14283 (antibody, V domains shown) VH: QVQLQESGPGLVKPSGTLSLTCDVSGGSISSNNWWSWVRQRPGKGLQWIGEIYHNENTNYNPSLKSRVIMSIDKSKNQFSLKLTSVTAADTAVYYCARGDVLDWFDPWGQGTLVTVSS VL: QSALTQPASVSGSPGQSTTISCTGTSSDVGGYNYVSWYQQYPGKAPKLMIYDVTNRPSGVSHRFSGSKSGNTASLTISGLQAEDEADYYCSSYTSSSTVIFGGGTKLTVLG",
    "koff (s⁻¹)": "7.32e-05"
  },
  {
    "binder": "mAb13459 (antibody, V domains shown) VH: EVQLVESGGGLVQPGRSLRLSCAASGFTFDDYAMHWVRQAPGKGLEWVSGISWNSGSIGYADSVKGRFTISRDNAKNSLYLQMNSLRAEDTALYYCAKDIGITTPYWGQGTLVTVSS VL: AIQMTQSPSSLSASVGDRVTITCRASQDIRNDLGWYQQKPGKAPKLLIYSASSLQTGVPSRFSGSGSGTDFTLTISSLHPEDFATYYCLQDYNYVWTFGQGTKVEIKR",
    "koff (s⁻¹)": "4.76e-05"
  }
]

Incoming: Query: koff; subject: mAb15157 (antibody, V domains shown) VH: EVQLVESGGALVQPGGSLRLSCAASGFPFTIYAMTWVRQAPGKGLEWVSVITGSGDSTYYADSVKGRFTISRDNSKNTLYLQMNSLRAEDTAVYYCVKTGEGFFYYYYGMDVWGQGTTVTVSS VL: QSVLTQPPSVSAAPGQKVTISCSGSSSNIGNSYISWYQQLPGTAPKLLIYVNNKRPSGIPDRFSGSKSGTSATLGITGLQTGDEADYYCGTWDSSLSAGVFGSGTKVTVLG
Outgoing: 0.00024
